Experiment: S. cerevisiae RM11-1a growth modifiers, primary screen, strain RM11-1a, OD600, basal, 24 h (AID 1177);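 also: cultures grown under basal conditions with no added stressor; test concentration not given here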
Details: OD600, 24 h, higher = more signal, called active from +8 up or from −8 down
The source made the active and inactive calls.
// values below are reported z-score
recorded_endpoint: z-score

>>> df
                           substance_smiles            result
0  C#CCCCON=C1C[C@@H](O)[C@@H](O)[C@@H]2[C@@H]3C(=O)N(c4ccc(F)cc4F)C(=O)[C@@H]3CC[C@@H]12  -1.07 (inactive)
1  COc1cccc([C@H]2Oc3ccc(OC)cc3C(=NOC[C@@H](O)COCc3ccco3)[C@@H]2O)c1  -2.29 (inactive)
2  C=CC[C@@H]1C=C[C@H](ON=C[C@@H](C)[C@H](OCc2ccccc2)C(C)C)[C@@H](CO)O1  -0.62 (inactive)
3  C#CCCCON=C1C[C@@H](O)[C@@H](O)[C@@H]2[C@@H]3C(=O)N(c4ccc(F)cc4F)C(=O)[C@@H]3CC[C@H]12  -1.67 (inactive)

* * *

Biological target: Luciferin 4-monooxygenase (Photinus pyralis) (UniProt P08659)
Sequence (P08659 whole entry, looked up): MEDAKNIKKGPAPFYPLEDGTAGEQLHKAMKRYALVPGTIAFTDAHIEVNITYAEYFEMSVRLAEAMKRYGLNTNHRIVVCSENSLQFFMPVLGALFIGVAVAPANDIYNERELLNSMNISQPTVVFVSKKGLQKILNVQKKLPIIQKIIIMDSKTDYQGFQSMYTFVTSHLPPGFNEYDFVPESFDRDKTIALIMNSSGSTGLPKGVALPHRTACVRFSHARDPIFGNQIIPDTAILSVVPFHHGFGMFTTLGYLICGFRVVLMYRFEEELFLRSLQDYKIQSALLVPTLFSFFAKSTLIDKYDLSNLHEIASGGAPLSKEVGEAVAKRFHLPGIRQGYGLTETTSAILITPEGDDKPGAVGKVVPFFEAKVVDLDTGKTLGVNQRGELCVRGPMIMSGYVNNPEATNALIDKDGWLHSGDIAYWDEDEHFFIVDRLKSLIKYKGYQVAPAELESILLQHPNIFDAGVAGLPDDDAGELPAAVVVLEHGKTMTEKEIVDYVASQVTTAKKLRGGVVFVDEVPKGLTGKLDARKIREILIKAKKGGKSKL
Assay: firefly luciferase enzyme inhibitors, primary screen, biochemical, luminescence, purified enzyme, 2006 set (AID 1141);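 also: cell-free assay with purified firefly luciferase at 100 ng per well in PBS; test concentration not given here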
Conditions: SteadyGlo luminescence, 30 min, higher = more signal, called active from +8 up or from −8 down
// values below are reported z-score
recorded_endpoint: z-score

compound	test_system	recorded_endpoint	result
COC(=O)CC=C[C@@H](C)[C@H](OCc1cccc(-c2ccccc2)c1)C1CCCCC1	Luciferin 4-monooxygenase (Photinus pyralis) (UniProt P08659)	z-score	-0.0245
C#CCCCON=C1[C@H]2CCn3c(=O)n(-c4ccccc4)c(=O)n3[C@H]2[C@H](O)[C@@H]2O[C@H]12	Luciferin 4-monooxygenase (Photinus pyralis) (UniProt P08659)	z-score	-1.32
COC(=O)CC=C[C@@H](C)[C@@H](C=NOC[C@H]1O[C@H](c2ccccc2)C=C[C@@H]1Oc1ccc(OC)cc1)NS(=O)(=O)c1ccc(C)cc1	Luciferin 4-monooxygenase (Photinus pyralis) (UniProt P08659)	z-score	0.847
O=C(NN=C1C[C@@H](O)[C@@H](O)[C@@H]2[C@@H]3C(=O)N(C[C@@H]4CCCO4)C(=O)[C@@H]3CC[C@H]12)OCc1ccccc1	Luciferin 4-monooxygenase (Photinus pyralis) (UniProt P08659)	z-score	0.304
CON=C(C)CCC(=O)OC[C@H]1O[C@H](c2ccccc2)C=C[C@@H]1Oc1ccc(OC)cc1	Luciferin 4-monooxygenase (Photinus pyralis) (UniProt P08659)	z-score	0.236
COC(=O)[C@@H]1CC[C@H](C)[C@@H](c2ccc(C)cc2)N1C(=O)c1ccc(C=NO[C@@H]2O[C@H](COC(C)=O)[C@@H](OC(C)=O)[C@H](OC(C)=O)[C@H]2OC(C)=O)cc1	Luciferin 4-monooxygenase (Photinus pyralis) (UniProt P08659)	z-score	0.945
COC(=O)[C@H](C)NC(=O)CCC1CC(OC(=O)NCCc2ccc(F)cc2)CC2(CCCC(COC(=O)NCCC(C)C)O2)O1 (some centres not stated)	Luciferin 4-monooxygenase (Photinus pyralis) (UniProt P08659)	z-score	-0.447

* * *

Target: Calmodulin-1 (Homo sapiens)
Assay: CALM1 binders on microarrays, EGTA buffer, profiling panel, biochemical, small-molecule microarray, Cy5-labelled CALM1 (AID 1111);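 also: labelled calmodulin applied in Tris saline Tween buffer holding calcium plus EGTA and DTT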
Conditions: Cy5-CALM1 binding fluorescence, higher = more signal
recorded_endpoint: composite z-score

In [3]: df
Out[3]:
                                    compound   result
 0  C[C@@H]1CC[C@H]2C(=O)O[C@@H](COc3ccc(C(C)(C)C)cc3)CN2[C@@H]1c1ccc(Br)cc1   -0.121
 1  COC(=O)CC=C[C@@H](C)[C@@H](C=NO[C@@H](C)c1cn([C@H](CO)Cc2ccccc2)nn1)OC    -1.04
 2  CCCNC(=O)OC[C@H]1O[C@H](CCON=C(C)CCN2CCc3nc(CC)c(CC)cc3C2)C=C[C@@H]1Oc1ccc(OC)cc1   -0.254
 3  C=CC[C@@H]1C=C[C@H](ON=C[C@@H](C)[C@H](OCc2ccccc2)C(C)C)[C@@H](CO)O1    -1.07
 4  CCOC(=O)[C@H](CC(C)C)NC(=O)CCC1CC(OC(=O)NCCc2ccc(F)cc2)CC2(CCCC(COC(=O)NCC3CCCCC3)O2)O1 (stereo not given in full)    0.255
 5  CCOC(=O)[C@H](CC(C)C)NC(=O)CCC1CC(OC(=O)NCc2cccc3ccccc23)CC2(CCCC(COC(=O)NCCOC)O2)O1 (stereo not given in full)    -0.24
 6  COc1cccc([C@H]2Oc3ccc(OC)cc3C(=NOC[C@@H](C)[C@H](OCc3ccccc3)C(C)C)[C@@H]2O)c1  -0.0749
 7  COC(=O)[C@@H]1CC[C@H](C)[C@@H](c2ccc(C)cc2)N1C(=O)c1ccc(C=NO[C@@H](C)c2cn([C@H](CO)Cc3ccccc3)nn2)cc1  -0.0062
 8  CO[C@H]1COC(=O)CC=C[C@@H](C)[C@H](OC)COC(=O)[C@@H]2CCCN2C(=O)CC=C[C@@H]1C    -1.02
 9  CO[C@@H]1COC(=O)CC=C[C@@H](C)[C@@H]2C=C[C@H](O)[C@@H](COC(=O)CC=C[C@H]1C)O2    -1.12
10  CO[C@H]1COC(=O)CC=C[C@H](C)[C@@H](OC)COC(=O)[C@@H](C)NC(=O)CC=C[C@@H]1C   -0.857
11  CCC1=NOC(CCC2CC(OC(=O)NCc3cccc4c3OCO4)CC3(CCCC(COC(=O)NCCc4ccccc4OC)O3)O2)C1 (stereo not given)     1.21
12  O=C1C[C@@H](O)[C@@H](O)[C@@H]2[C@@H]3C(=O)N(C[C@@H]4CCCO4)C(=O)[C@@H]3CC[C@@H]12    0.187
13  COc1ccc(O[C@@H]2[C@H](O)CO[C@H]2C=Cc2ccccc2)cc1   -0.248
14  CCN1C(=O)[C@H]2[C@H]3[C@H](O)[C@H](O)CC(=NOCC(C)C)[C@@H]3CC[C@H]2C1=O    -0.39

* * *

Test: splicing luciferase reporter signal modulators, primary screen, spliceosome inhibition project, cell-based, HEK293, splice +/- reporter (AID 1101);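 also: HEK293 cells carrying a splicing-competent luciferase reporter gene; test concentration not given here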
Conditions: luminescence, 24 h, higher = more signal, called active from +8 up or from −8 down
Rule: z-score of -0.3 or more gives class 1; anything lower gives class 0.

molecule	class_assignment
COC(=O)[C@H](C)NC(=O)CCC1CC(OC(=O)NCc2ccc3c(c2)OCO3)CC2(CCCC(COC(=O)NCc3cccc(C(F)(F)F)c3)O2)O1 (stereo partly specified)	class 1
CCCNC(=O)OC[C@H]1O[C@H](CCON=C(C)CCC(=O)OC[C@H]2O[C@H](c3ccccc3)C=C[C@@H]2Oc2ccc(OC)cc2)C=C[C@@H]1Oc1ccc(OC)cc1	class 1
CCc1cc2c(nc1CC)CCN(CCC(C)=NO[C@H](C)c1cn([C@H](CO)Cc3ccccc3)nn1)C2	class 1
COc1ccc(COC(=O)NN=C2C[C@@H](O)[C@@H](O)[C@@H]3[C@@H]4C(=O)N(c5ccc(F)cc5F)C(=O)[C@@H]4CC[C@H]23)cc1	class 0
CCOC(=O)[C@H](Cc1ccccc1)NC(=O)CCC1CC(OC(=O)NCCc2ccc(F)cc2)CC2(CCCC(COC(=O)NCCc3ccccc3OC)O2)O1 (stereo partly specified)	class 1
CCC=CCCC(OC(=O)c1ccc(Br)cc1)C1=CCCCC1=O (stereo unspecified)	class 1
CO[C@@H]1COC(=O)[C@H](CCSC)NC(=O)CC=C[C@@H](C)COC(=O)CCC[C@H]1C	class 0
CO[C@H]1COC(=O)CC=C[C@@H](C)[C@H](OC)COC(=O)[C@@H]2CCCN2C(=O)CC=C[C@@H]1C	class 1
CCOC(=O)[C@H](CC(C)C)NC(=O)CCC1CC(OC(=O)NCCc2ccc(F)cc2)CC2(CCCC(COC(=O)NCCc3ccc(Cl)cc3)O2)O1 (stereo partly specified)	class 1
C[C@@H]1CC[C@H]2C(=O)O[C@@H](Cc3ccccc3)CN2[C@H]1c1ccc(Br)cc1	class 0
CC(C)=CCCC(C)=CCON=C1C[C@@H](O)[C@@H](O)[C@@H]2[C@@H]3C(=O)N(C4CCCCC4)C(=O)[C@@H]3CC[C@@H]12	class 1
C#CCCCON=C1[C@H]2CCn3c(=O)n(C)c(=O)n3[C@H]2[C@H](O)[C@@H]2O[C@H]12	class 1
COC(=O)NCC=Cc1nc(CCCO)co1	class 1
CC(C)=CCCC(C)=CCON=C1C[C@@H](O)[C@@H](O)[C@@H]2[C@@H]3C(=O)N(Cc4ccccc4)C(=O)[C@@H]3CC[C@H]12	class 0
O=C1[C@H]2[C@H]3[C@H](O)[C@H](O)CC(=NOCc4ccccc4)[C@H]3CC[C@H]2C(=O)N1Cc1ccc2c(c1)OCO2	class 1
CC=CC1=C(CO)C(=O)[C@@H]2O[C@@H]2C1=O	class 0
CO[C@H]1COC(=O)CC=C[C@@H](C)[C@H](NS(=O)(=O)c2ccc(C)cc2)COC(=O)CCC[C@@H]1C	class 0
CC(C)=CCCC(C)=CCON=C1C[C@@H](O)[C@@H](O)[C@@H]2[C@@H]3C(=O)N(c4ccc(F)cc4F)C(=O)[C@@H]3CC[C@H]12	class 0
CCOC(=O)[C@H](CC(C)C)NC(=O)CCC1CC(OC(=O)NCc2cccc3ccccc23)CC2(CCCC(COC(=O)NCCOC)O2)O1 (stereo partly specified)	class 0
CC(CCN1CCCCc2nc(C)c(C)cc21)=NOC[C@@H](O)COCc1ccco1	class 1
CC(CCN1CCCc2nc(C)c(C)cc21)=NO[C@@H](C)c1cc(-c2c(C)cc(C)cc2C)no1	class 0
CC(CCN1CCc2nc(-c3ccccc3)c(-c3ccccc3)cc2C1)=NOC[C@@H](O)[C@H]1O[C@@H]2OC(C)(C)O[C@@H]2[C@H]1O	class 1
CO[C@@H]1COC(=O)[C@@H]2CCCN2C(=O)[C@@H](C)COC(=O)CC=C[C@H]1C	class 1
CC(=O)OC[C@H]1O[C@@H](ON=C(C)CCN2CCCc3nc(C)c(C)cc32)[C@H](OC(C)=O)[C@@H](OC(C)=O)[C@@H]1OC(C)=O	class 0
O=C1CCCC=C1C(CCc1ccccc1)OC(=O)c1ccc(Br)cc1 (stereo unspecified)	class 1
C[C@H]1Cc2c(COc3ccccc3)nc3c(c2CO1)CN(CCOc1ccccc1)CC3	class 0
COC(=O)[C@H](C)NC(=O)CCC1CC(OC(=O)NCc2ccc3c(c2)OCO3)CC2(CCCC(COC(=O)NCC(c3ccccc3)c3ccccc3)O2)O1 (stereo partly specified)	class 0
CCOC(=O)NN=C1C[C@@H](O)[C@@H](O)[C@@H]2[C@@H]3C(=O)N([C@@H](C)c4ccccc4)C(=O)[C@@H]3CC[C@H]12	class 0
CO[C@H]1COC(=O)[C@@H](C)COC(=O)[C@@H](OCc2ccccc2)C=C[C@@H]1C	class 1
C[C@@H]1CC[C@H]2C(=O)O[C@@H](COc3ccc(C(C)(C)C)cc3)CN2[C@@H]1c1ccc(Br)cc1	class 0
COCCNC(=O)OCC1CCCC2(CC(OC(=O)NCc3ccc4c(c3)OCO4)CC(CCC(=O)N[C@@H](C)C(=O)OC)O2)O1 (stereo partly specified)	class 1
